Value source: ChEMBL document CHEMBL1127893

# Target System: Phosphorylase kinase
# Protocol: Inhibition of phosphorylase kinase (PhK)
Parameter: IC50 (µM)
Field format: number, assumed µM, no unit text.

Sure, the documented IC50 for CN1C[C@@H]2Cn3c(c(C4=C(c5cn(C)c6ccccc56)C(=O)NC4=O)c4ccccc43)C[C@H]2C1.Cl (stereo in doubt; form 1) is 1.69

Field IC50 (entry CN1C[C@@H]2Cn3c(c(C4=C(c5cn(C)c6ccccc56)C(=O)NC4=O)c4ccccc43)C[C@H]2C1.Cl (stereo in doubt; form 2) ) reads 3.8

Okay, next one:
Quick note, IC50 for CN(C)C[C@H]1CCn2c(c(C3=C(c4cn(C)c5ccccc45)C(=O)NC3=O)c3ccccc32)C1 [RO-320432] landed at 15.6

====

# Target System: Protein kinase C gamma type (Rattus norvegicus, UniProt P63319)
Parameter: IC50 (nM)
Please give a number only; it is taken to be in nM.

IC50 of `CN(C)C[C@H]1CCn2c(c(C3=C(c4cn(C)c5ccccc45)C(=O)NC3=O)c3ccccc32)C1` , assay on Protein kinase C gamma type (Rattus norvegicus, UniProt P63319), is 36.5

====

# Target System: Protein kinase C beta type (Rattus norvegicus, UniProt P68403)
# Sequence (P68403 whole entry): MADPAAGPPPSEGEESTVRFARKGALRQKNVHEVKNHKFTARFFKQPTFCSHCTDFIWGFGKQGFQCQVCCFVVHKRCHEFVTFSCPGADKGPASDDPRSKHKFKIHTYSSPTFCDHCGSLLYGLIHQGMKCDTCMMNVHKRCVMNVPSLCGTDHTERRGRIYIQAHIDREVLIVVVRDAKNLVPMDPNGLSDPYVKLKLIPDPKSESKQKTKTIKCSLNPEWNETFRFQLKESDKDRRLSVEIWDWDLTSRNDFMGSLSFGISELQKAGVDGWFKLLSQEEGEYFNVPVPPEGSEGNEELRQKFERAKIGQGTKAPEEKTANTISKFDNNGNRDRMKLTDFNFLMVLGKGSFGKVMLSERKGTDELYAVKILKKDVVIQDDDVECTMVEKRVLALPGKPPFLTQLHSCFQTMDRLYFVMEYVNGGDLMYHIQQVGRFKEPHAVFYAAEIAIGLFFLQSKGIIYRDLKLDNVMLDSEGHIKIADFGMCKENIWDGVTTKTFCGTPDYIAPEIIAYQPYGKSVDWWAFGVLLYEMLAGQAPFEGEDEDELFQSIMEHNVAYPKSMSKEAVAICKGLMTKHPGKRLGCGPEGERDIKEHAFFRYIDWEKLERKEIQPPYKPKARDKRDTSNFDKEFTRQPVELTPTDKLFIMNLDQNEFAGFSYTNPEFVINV
# Protocol: Inhibition of Protein kinase C beta
Parameter: IC50 (µM)
The response must be a number in µM with no trailing unit.

IC50 reading for `CN(C)C[C@H]1CCn2c(c(C3=C(c4cn(C)c5ccccc45)C(=O)NC3=O)c3ccccc32)C1` : 0.0305

Below: the item to evaluate.
response.value for CN1C[C@@H]2Cn3c(c(C4=C(c5cn(C)c6ccccc56)C(=O)NC4=O)c4ccccc43)C[C@H]2C1.Cl (stereo in doubt; form 1) (field: IC50) = 0.0068
